EXPERIMENTAL_DETAILS: self-splicing fitness, log relative to wild type (ln ratio); higher = more splicing; Tetrahymena group I intron in knt gene, E. coli kanamycin selection, DiMSum; sequences stand for … in CUCUCU…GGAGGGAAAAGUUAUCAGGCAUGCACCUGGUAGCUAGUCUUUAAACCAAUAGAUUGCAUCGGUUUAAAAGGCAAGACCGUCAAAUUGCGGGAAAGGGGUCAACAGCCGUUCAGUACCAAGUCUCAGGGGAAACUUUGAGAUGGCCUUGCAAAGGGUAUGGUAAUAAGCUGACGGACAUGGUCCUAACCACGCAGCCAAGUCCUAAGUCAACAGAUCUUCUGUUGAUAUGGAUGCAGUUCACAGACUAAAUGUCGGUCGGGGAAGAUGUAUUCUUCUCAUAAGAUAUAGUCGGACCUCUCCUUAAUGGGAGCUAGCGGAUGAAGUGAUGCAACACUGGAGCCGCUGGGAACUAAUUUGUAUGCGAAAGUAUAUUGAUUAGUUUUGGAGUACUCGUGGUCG;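 also: selection with 25 µg/mL kanamycin versus none on LB agar overnight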
EXPERIMENTAL_PARAMETERS: 37 °C
Would you mind labelling by self-splicing fitness (ln)? At or over -2 is y, under is n.

Quick check: does ACGUAGCAAUAUUACGUGAC have self-splicing fitness (ln) greater than or equal to -2?
n

Decide: self-splicing fitness (ln) of UAGAAGCAAUAUUACGUCCG >= -2?
y

# bool: self-splicing fitness (ln) of GUUGAGCAAUAUUACGAGCG >= -2
y

Threshold query (self-splicing fitness (ln) >= -2) on UCAAAGCAAUAUUACGGUUC
n

Kindly determine if self-splicing fitness (ln) recorded for ACCCAGCAAUAUUACGUGCG is above or exactly -2.
y

Kindly determine if self-splicing fitness (ln) recorded for GAGAAGCAAUAUUACGACCG is above or exactly -2.
y

Would you say CAUCAGCAAUAUUACGAGUG shows self-splicing fitness (ln) at minimum -2?
y

Is reported self-splicing fitness (ln) greater than or equal to -2 here: UUCCAGCAAUAUUACGUACU
y
